Tested on: Pyricularia oryzae (rice blast)
Assay: whole plant or invertebrate
Type: in vivo
Details: Pyricularia oryzae, foliar, read-out: PYRIOR disease control, host rice; foliar spray; 400 ppm (+++: 100 ppm)
measurement_kind: pest or weed control at 400 µg/mL

- compound: "O=[N+]([O-])c1cccnc1Oc1ccc(CCOc2ncnc3cccc(F)c23)cc1 [Compound 9]"
  result: "0 to 19%"

# input Check the records and state pest or weed control at 400 µg/mL for Fc1cccc2c(NCCc3ccc(Oc4cccc(C(F)(F)F)n4)cc3)ncnc12 [Compound 37]
# output 20 to 89%

# input Check the records and state pest or weed control at 400 µg/mL for Fc1cccc2c(OCCc3ccc(Oc4cc(C(Cl)(Cl)Cl)cc(Cl)n4)cc3)ncnc12 [Compound 34]
# output 20 to 89%

# input Check the records and state pest or weed control at 400 µg/mL for Fc1cccc2c(OCCc3ccc(Oc4cc(C(F)(F)F)ccn4)cc3)ncnc12 [Compound 12]
# output 90 to 100%

# input Check the records and state pest or weed control at 400 µg/mL for O=[N+]([O-])c1cccnc1Oc1ccc(CCOc2ncnc3c(F)cccc23)cc1 [Compound 8]
# output 20 to 89%

# input Check the records and state pest or weed control at 400 µg/mL for COc1cc(C(Cl)(Cl)Cl)cc(Oc2ccc(CCNc3ncnc4c(F)cccc34)cc2)n1 [Compound 35]
# output 0 to 19%

# input Check the records and state pest or weed control at 400 µg/mL for Brc1cnc(Oc2ccc(CCOc3ncnc4ccccc34)cc2)nc1 [Compound 46]
# output 0 to 19%

# input Check the records and state pest or weed control at 400 µg/mL for N#Cc1cccnc1Oc1ccc(CCOc2ncnc3c(F)cccc23)cc1 [Compound 3]
# output 20 to 89%

---

Test system: Pyricularia oryzae (rice blast)
Experiment: whole plant or invertebrate
Format: in vivo
Settings: Pyricularia oryzae, foliar, read-out: PYRIOR disease control, host rice; foliar spray; 400 ppm (+++: 100 ppm)
Each item that follows carries a reported pest or weed control at 400 µg/mL.

- mol_smiles: "Fc1cccc2ncnc(OCCc3ccc(Oc4ccc(Cl)cn4)cc3)c12"
  pest or weed control at 400 µg/mL: "90 to 100%"
- mol_smiles: "Fc1cccc2c(OCCc3ccc(Oc4ccc(C(Cl)(Cl)Cl)cn4)cc3)ncnc12"
  pest or weed control at 400 µg/mL: "20 to 89%"
- mol_smiles: "FC(F)(F)c1ccc(Oc2ccc(CCNc3ncnc4cccnc34)cc2)nc1"
  pest or weed control at 400 µg/mL: "90 to 100%"
- mol_smiles: "Fc1cccc2c(OCCc3ccc(Oc4ccc(Cl)cn4)cc3)ncnc12"
  pest or weed control at 400 µg/mL: "90 to 100%"

Alright, here's another compound for you.
# input Check the records and state pest or weed control at 400 µg/mL for O=[N+]([O-])c1ccc(Oc2ccc(CCOc3ncnc4c(F)cccc34)cc2)nc1
# output 20 to 89%

---

Test system: cotton aphid (Aphis gossypii)
Experiment: whole plant or invertebrate
Details: 72 h, read-out: CA activity (percent based on aphids present in plants sprayed with solvent alone), 50 ppm, squash plants, three days after treatment
Each item that follows carries a reported mortality at 50 ppm.
Report only the number, with the unit % understood.

- mol_smiles: "Fc1cccc2c(OCCc3ccc(Oc4cc(C(F)(F)F)ccn4)cc3)ncnc12"
  reading_unit: "%"
  mortality at 50 ppm: 100
- mol_smiles: "Fc1cccc2c(OCCc3ccc(Oc4cc(C(Cl)(Cl)Cl)cc(Cl)n4)cc3)ncnc12"
  reading_unit: "%"
  mortality at 50 ppm: 0

# input Find the measured mortality at 50 ppm of Fc1cccc2c(OCCc3ccc(Oc4ccc(C(F)(F)F)cn4)cc3)ncnc12 with cotton aphid (Aphis gossypii) as test system.
# output 90

# input Find the measured mortality at 50 ppm of Fc1cccc2c(NCCc3ccc(Oc4ncc(C(F)(F)F)cc4Cl)cc3)ncnc12 with cotton aphid (Aphis gossypii) as test system.
# output 0

# input Find the measured mortality at 50 ppm of Fc1cccc2ncnc(OCCc3ccc(Oc4ccc(Cl)cn4)cc3)c12 with cotton aphid (Aphis gossypii) as test system.
# output 100

# input Find the measured mortality at 50 ppm of Fc1cc(C(F)(F)F)cnc1Oc1ccc(CCOc2ncnc3cccc(F)c23)cc1 with cotton aphid (Aphis gossypii) as test system.
# output 100

# input Find the measured mortality at 50 ppm of O=[N+]([O-])c1ccc(Oc2ccc(CCOc3ncnc4c(F)cccc34)cc2)nc1 with cotton aphid (Aphis gossypii) as test system.
# output 0

# input Find the measured mortality at 50 ppm of Fc1cccc2c(NCCc3ccc(Oc4ccc(C(F)(F)F)cn4)cc3)ncnc12 with cotton aphid (Aphis gossypii) as test system.
# output 100

# input Find the measured mortality at 50 ppm of COc1cc(C(Cl)(Cl)Cl)cc(Oc2ccc(CCNc3ncnc4c(F)cccc34)cc2)n1 with cotton aphid (Aphis gossypii) as test system.
# output 0

# input Find the measured mortality at 50 ppm of Fc1cccc2ncnc(OCCc3ccc(Oc4nc(Cl)c(Cl)cc4Cl)cc3)c12 with cotton aphid (Aphis gossypii) as test system.
# output 0

# input Find the measured mortality at 50 ppm of FC(F)(F)c1ccc(Oc2ccc(CCNc3ncnc4ccccc34)cc2)nc1 with cotton aphid (Aphis gossypii) as test system.
# output 90

# input Find the measured mortality at 50 ppm of Fc1cc(C(F)(F)F)cnc1Oc1ccc(CCNc2ncnc3c(F)cccc23)cc1 with cotton aphid (Aphis gossypii) as test system.
# output 0

# input Find the measured mortality at 50 ppm of c1cnc(Oc2ccc(CCOc3ncnc4ccccc34)cc2)nc1 with cotton aphid (Aphis gossypii) as test system.
# output 100

# input Find the measured mortality at 50 ppm of c1ccc2c(OCCc3ccc(Oc4cnccn4)cc3)ncnc2c1 with cotton aphid (Aphis gossypii) as test system.
# output 0

---

Test system: Leptosphaeria nodorum (glume blotch)
Assay: Foliar spray fungicide test, Leptosphaeria nodorum (glume blotch) on wheat
Conditions: Parastagonospora nodorum, in Triticum aestivum, foliar, read-out: LETPNO disease control, host wheat, 400 ppm (+++: 100 ppm)
measurement_kind: pest or weed control at 400 µg/mL

Worked cases, answers included:
- molecule: "Fc1cccc2c(OCCc3ccc(Oc4cccc(C(F)(F)F)n4)cc3)ncnc12 [Compound 36]"
  pest or weed control at 400 µg/mL: "20 to 89%"
- molecule: "Clc1cnc(Oc2ccc(CCOc3ncnc4ccccc34)cc2)nc1 [Compound 47]"
  pest or weed control at 400 µg/mL: "0 to 19%"
- molecule: "Fc1cc(C(F)(F)F)cnc1Oc1ccc(CCOc2ncnc3cccc(F)c23)cc1 [Compound 7]"
  pest or weed control at 400 µg/mL: "0 to 19%"
- molecule: "Fc1cccc2c(NCCc3ccc(Oc4cccc(C(F)(F)F)n4)cc3)ncnc12 [Compound 37]"
  pest or weed control at 400 µg/mL: "90 to 100%"
- molecule: "Clc1ccc(Oc2ccc(CCOc3ncnc4ccccc34)cc2)nn1 [Compound 49]"
  pest or weed control at 400 µg/mL: "0 to 19%"

# input Find the measured pest or weed control at 400 µg/mL of c1ccc2c(OCCc3ccc(Oc4cnccn4)cc3)ncnc2c1 [Compound 51] with Leptosphaeria nodorum (glume blotch) as test system.
# output 90 to 100%

# input Find the measured pest or weed control at 400 µg/mL of FC(F)(F)c1ccc(Oc2ccc(CCNc3ncnc4ccccc34)cc2)nc1 [Compound 29] with Leptosphaeria nodorum (glume blotch) as test system.
# output 20 to 89%

---

Each item that follows carries a reported pest or weed control at 400 µg/mL.
System: Pyricularia oryzae (rice blast)
Test: whole plant or invertebrate
Type: in vivo
Conditions: Pyricularia oryzae, foliar, read-out: PYRIOR disease control, host rice; foliar spray; 400 ppm (+++: 100 ppm)

Worked cases, answers included:
- mol_smiles: "FC(F)(F)c1ccnc(Oc2ccc(CCOc3ncnc4ccccc34)cc2)c1"
  assayed_system: "Pyricularia oryzae (rice blast)"
  pest or weed control at 400 µg/mL: "20 to 89%"
- mol_smiles: "FC(F)(F)c1ccc(Oc2ccc(CCNc3ncnc4ncccc34)cc2)nc1"
  assayed_system: "Pyricularia oryzae (rice blast)"
  pest or weed control at 400 µg/mL: "20 to 89%"

# input Check the records and state pest or weed control at 400 µg/mL for O=[N+]([O-])c1ccc(Oc2ccc(CCNc3ncnc4c(F)cccc34)cc2)nc1
# output 20 to 89%

# input Check the records and state pest or weed control at 400 µg/mL for Fc1cccc2c(OCCc3ccc(Oc4ncc(Cl)cn4)cc3)ccnc12
# output 0 to 19%

# input Check the records and state pest or weed control at 400 µg/mL for Fc1cccc2c(NCCc3ccc(Oc4ncc(C(F)(F)F)cc4Cl)cc3)ncnc12
# output 90 to 100%

# input Check the records and state pest or weed control at 400 µg/mL for N#Cc1ccc(Oc2ccc(CCOc3ncnc4c(F)cccc34)cc2)nc1
# output 90 to 100%

# input Check the records and state pest or weed control at 400 µg/mL for Fc1cccc2c(OCCc3ccc(Oc4ncccc4C(F)(F)F)cc3)ncnc12
# output 90 to 100%

---

Tested on: Leptosphaeria nodorum (glume blotch)
Assay: Foliar spray fungicide test, Leptosphaeria nodorum (glume blotch) on wheat
Settings: Parastagonospora nodorum, in Triticum aestivum, foliar, read-out: LETPNO disease control, host wheat, 400 ppm (+++: 100 ppm)
measurement_kind: pest or weed control at 400 µg/mL

Worked cases, answers included:
- mol_smiles: "Fc1cccc2c(NCCc3ccc(Oc4ccc(C(F)(F)F)cn4)cc3)ncnc12"
  pest or weed control at 400 µg/mL: "90 to 100%"
- mol_smiles: "N#Cc1ccc(Oc2ccc(CCOc3ncnc4ccccc34)cc2)nc1"
  pest or weed control at 400 µg/mL: "20 to 89%"
- mol_smiles: "Fc1cccc2c(OCCc3ccc(Oc4ccc(C(Cl)(Cl)Cl)cn4)cc3)ncnc12"
  pest or weed control at 400 µg/mL: "0 to 19%"
- mol_smiles: "ClC(Cl)(Cl)c1ccc(Oc2ccc(CCOc3ncnc4ccccc34)cc2)nc1"
  pest or weed control at 400 µg/mL: "0 to 19%"
- mol_smiles: "N#Cc1cccnc1Oc1ccc(CCOc2ncnc3c(F)cccc23)cc1"
  pest or weed control at 400 µg/mL: "20 to 89%"
- mol_smiles: "Fc1cccc2c(OCCc3ccc(Oc4cccc(OCC(F)(F)F)n4)cc3)ncnc12"
  pest or weed control at 400 µg/mL: "0 to 19%"
- mol_smiles: "Fc1cc(C(F)(F)F)cnc1Oc1ccc(CCNc2ncnc3c(F)cccc23)cc1"
  pest or weed control at 400 µg/mL: "90 to 100%"
- mol_smiles: "Fc1cccc2c(NCCc3ccc(Oc4cc(C(F)(F)F)ccn4)cc3)ncnc12"
  pest or weed control at 400 µg/mL: "20 to 89%"

# input Check the records and state pest or weed control at 400 µg/mL for FC(F)(F)c1ccc(Oc2ccc(CCOc3ncnc4ncccc34)cc2)nc1
# output 0 to 19%

# input Check the records and state pest or weed control at 400 µg/mL for FC(F)(F)c1ccnc(Oc2ccc(CCOc3ncnc4ccccc34)cc2)c1
# output 90 to 100%

# input Check the records and state pest or weed control at 400 µg/mL for Fc1cccc2c(OCCc3ccc(Oc4cc(C(Cl)(Cl)Cl)cc(Cl)n4)cc3)ncnc12
# output 0 to 19%

# input Check the records and state pest or weed control at 400 µg/mL for FC(F)(F)c1ccc(Oc2ccc(CCNc3ncnc4cccnc34)cc2)nc1
# output 90 to 100%

# input Check the records and state pest or weed control at 400 µg/mL for Fc1cccc2c(OCCc3ccc(Oc4ccc(C(F)(F)F)cn4)cc3)ncnc12
# output 0 to 19%

# input Check the records and state pest or weed control at 400 µg/mL for Fc1cccc2ncnc(OCCc3ccc(Oc4nc(Cl)c(Cl)cc4Cl)cc3)c12
# output 0 to 19%

# input Check the records and state pest or weed control at 400 µg/mL for COc1cc(C(Cl)(Cl)Cl)cc(Oc2ccc(CCNc3ncnc4c(F)cccc34)cc2)n1
# output 0 to 19%

# input Check the records and state pest or weed control at 400 µg/mL for Fc1cccc2c(OCCc3ccc(Oc4ncccc4C(F)(F)F)cc3)ncnc12
# output 90 to 100%

# input Check the records and state pest or weed control at 400 µg/mL for Fc1cccc2ncnc(OCCc3ccc(Oc4ccc(Cl)cn4)cc3)c12
# output 20 to 89%

# input Check the records and state pest or weed control at 400 µg/mL for Fc1cc(C(F)(F)F)cnc1Oc1ccc(CCOc2ncnc3c(F)cccc23)cc1
# output 0 to 19%

# input Check the records and state pest or weed control at 400 µg/mL for Brc1cnc(Oc2ccc(CCOc3ncnc4ccccc34)cc2)nc1
# output 20 to 89%

# input Check the records and state pest or weed control at 400 µg/mL for O=[N+]([O-])c1ccc(Oc2ccc(CCNc3ncnc4c(F)cccc34)cc2)nc1
# output 20 to 89%

# input Check the records and state pest or weed control at 400 µg/mL for Fc1cccc2c(OCCc3ccc(Oc4ncc(Cl)cn4)cc3)ccnc12
# output 0 to 19%

# input Check the records and state pest or weed control at 400 µg/mL for O=[N+]([O-])c1cccnc1Oc1ccc(CCOc2ncnc3c(F)cccc23)cc1
# output 20 to 89%

# input Check the records and state pest or weed control at 400 µg/mL for FC(F)(F)c1ccc(Oc2ccc(CCNc3ncnc4ncccc34)cc2)nc1
# output 20 to 89%

# input Check the records and state pest or weed control at 400 µg/mL for c1cnc(Oc2ccc(CCOc3ncnc4ccccc34)cc2)nc1
# output 0 to 19%

# input Check the records and state pest or weed control at 400 µg/mL for N#Cc1ccc(Oc2ccc(CCOc3ncnc4c(F)cccc34)cc2)nc1
# output 20 to 89%

# input Check the records and state pest or weed control at 400 µg/mL for Fc1cccc2c(NCCc3ccc(Oc4ncccc4C(F)(F)F)cc3)ncnc12
# output 90 to 100%

Origin of values: patent US5326766A
